- TARGET OF ASSAY: COVID-19 S1 Spike Protein Mutant Y453F (SARS-CoV-2), P0DTC2
- PROTOCOL NOTES: FP direct binding
Non-standard residues stand in square brackets, D forms with d. No end group written: not given here. Sar = CNCC(=O)O
Below, each entry is listed alongside its reported Kd.
Enter your answer as a number in µM; do not include the unit.

ACRQSQCDWWAIRSFCA[Sar][Sar][Sar][Sar][Sar][Sar][KFl] (cysteine pairing not given here) [BCY15324] ... 0.366

Now, please, on to the next binder.
Could you share which Kd value was measured for ACEDHDWVYCSTCA[Sar][Sar][Sar][Sar][Sar][Sar][KFl] (cysteine pairing not given here) [BCY15299] ?
0.579

Data origin, for the record: patent US20250325672A1
